# IC50 (PathHunter β-Arrestin, antagonist mode) listing for each entry below
measured-on: somatostatin receptor type 2 (SSTR2) (UniProt P30874 1-369)
Sequence (P30874 whole entry): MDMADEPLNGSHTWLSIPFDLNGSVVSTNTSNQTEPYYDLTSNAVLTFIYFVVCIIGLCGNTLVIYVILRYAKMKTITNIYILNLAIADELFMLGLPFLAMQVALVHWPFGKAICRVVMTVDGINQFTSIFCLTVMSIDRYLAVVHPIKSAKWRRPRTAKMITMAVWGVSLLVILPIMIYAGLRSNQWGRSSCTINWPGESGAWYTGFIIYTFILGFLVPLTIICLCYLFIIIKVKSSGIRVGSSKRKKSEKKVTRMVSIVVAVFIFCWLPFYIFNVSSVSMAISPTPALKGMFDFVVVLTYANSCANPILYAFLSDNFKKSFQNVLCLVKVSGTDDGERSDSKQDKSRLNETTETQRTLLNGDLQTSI
assay-details: cell-based or functional assay
Positions of bridges follow the written chain, without caps; N, C: chain ends. Non-standard residues stand in square brackets, D forms with d. dPhe(4-CONH2) = NC(=O)c1ccc(C[C@@H](N)C(=O)O)cc1; Phe(4-Cl) = N[C@@H](Cc1ccc(Cl)cc1)C(=O)O; βAla = NCCC(=O)O
endpoint-name: IC50 (PathHunter β-Arrestin, antagonist mode) (nM)

# binder, experimental-result
data = [
    ("H-[βAla][Phe(4-Cl)][dC]Y[dPhe(4-CONH2)]K(Me)TC[dY]-NH2 (disulfide 3-8; SMILES CNCCCC[C@@H]1NC(=O)[C@@H](Cc2ccc(C(N)=O)cc2)NC(=O)[C@H](Cc2ccc(O)cc2)NC(=O)[C@H](NC(=O)[C@H](Cc2ccc(Cl)cc2)NC(=O)CCN)CSSC[C@@H](C(=O)N[C@H](Cc2ccc(O)cc2)C(N)=O)NC(=O)[C@H]([C@@H](C)O)NC1=O) [Compound 49: H-βAla-Cpa-cyclo[DCys-Tyr-DPhe(4-CONH2)-Lys(Me)-Thr-Cys]-DTyr-NH2]", 2.86),
    ("H-[Phe(4-Cl)][dC][Phe(4-Cl)][dPhe(4-CONH2)]K(Me)TC[dY]-NH2 (disulfide 2-7; SMILES CNCCCC[C@@H]1NC(=O)[C@@H](Cc2ccc(C(N)=O)cc2)NC(=O)[C@H](Cc2ccc(Cl)cc2)NC(=O)[C@H](NC(=O)[C@@H](N)Cc2ccc(Cl)cc2)CSSC[C@@H](C(=O)N[C@H](Cc2ccc(O)cc2)C(N)=O)NC(=O)[C@H]([C@@H](C)O)NC1=O) [Compound 48: H-Cpa-cyclo[D-Cys-Cpa-D-Phe(4-carbamoyl)-Lys(Nε-Me)-Thr-Cys]-D-Tyr-NH2]", 1.31),
    ("H-[Phe(4-Cl)][dC]Y[dPhe(4-benzamidophenyl)]KTC[dY]-NH2 (disulfide 2-7) [Compound 27: H-Cpa-cyclo[DCys-Tyr-D-(4-Benzamidophenyl)Phe-Lys-Thr-Cys]-DTyr-NH2]", 34.7),
]
